Tested on: Bst 2.0 DNA polymerase
Test: Homopolymer assays of nucleotide analogs (Example 10)
Type: biochemical
Conditions: Natural Nucleotide A (dATP = 1); hairpin oligo 221
valueKind: Relative Rate in Homopolymer Assay

Examples from the recorded data:
- molecule: "Nc1ncnc2c1nc(Br)n2[C@H]1C[C@H](O)[C@@H](COP(=O)(O)OP(=O)(O)OP(=O)(O)O)O1 [Bromo-dATP, bromo-deoxyadenosine triphosphate]"
  targetOrTestSystem: "Bst 2.0 DNA polymerase"
  Relative Rate in Homopolymer Assay: ">1"
- molecule: "Nc1ncnc2c1c(I)cn2[C@H]1C[C@H](O)[C@@H](COP(=O)(O)OP(=O)(O)OP(=O)(O)O)O1"
  targetOrTestSystem: "Bst 2.0 DNA polymerase"
  Relative Rate in Homopolymer Assay: ">1"
- molecule: "Nc1ncnc2c1ccn2[C@H]1C[C@H](O)[C@@H](COP(=O)(O)OP(=O)(O)OP(=O)(O)O)O1"
  targetOrTestSystem: "Bst 2.0 DNA polymerase"
  Relative Rate in Homopolymer Assay: "<1"

Entry Nc1ncnc2c1ncn2[C@H]1C[C@H](O)[C@@H](COP(=O)(O)OP(=O)(O)OP(=O)(O)O)O1 [dATP, deoxyadenosine triphosphate, reference compound] , Relative Rate in Homopolymer Assay reported as 1

Source listed as patent US11326207B2.
